# Assayed Target: VHL (Homo sapiens, UniProt P40337)
# Construct: expressed in transfected cells
# Sequence (P40337 whole entry): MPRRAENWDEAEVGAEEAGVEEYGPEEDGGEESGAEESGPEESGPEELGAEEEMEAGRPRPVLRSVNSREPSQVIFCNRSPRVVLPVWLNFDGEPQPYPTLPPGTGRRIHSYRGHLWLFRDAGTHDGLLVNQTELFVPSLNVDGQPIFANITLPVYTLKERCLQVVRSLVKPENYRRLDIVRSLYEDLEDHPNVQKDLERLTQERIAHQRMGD
# Assay Overview: VHL HEK-293 BRET Assay (VHL NanoBRET Target Engagement Assay)
# Format: cell-based
# Experimental Setup: HEK 293 RT VHL-NanoLuc stable cells; 1 uM tracer; 2 hours; geometric mean where more than one measurement; read-out: VHL binding in cells (HEK293 nanoBRET)
pIC50: −log10 of the molar value.
pIC50 of 6 or higher: yes (1). Under 6: no (0).

Input line: Given CC[C@H](C)[C@@H](C(=O)N1C[C@H](O)C[C@H]1C(=O)N[C@H](Cc1ccc(-c2ccccc2)cc1)C(N)=O)n1cc(C2CC2)nn1 , state whether its pIC50 is at least 6.
Output line: yes (1)

Input line: Given CC(C)(C)[C@@H](C(=O)N1C[C@H](O)C[C@H]1C(=O)N[C@H](Cc1ccc(-c2ccccc2)cc1)C(N)=O)n1cc(C(=O)O)nn1 , state whether its pIC50 is at least 6.
Output line: no (0)

Input line: Given CC(=O)NCC1(c2cn([C@H](C(=O)N3C[C@H](O)C[C@H]3C(=O)N[C@H](Cc3ccc(-c4ccccc4)cc3)C(N)=O)C(C)(C)C)nn2)CC1 , state whether its pIC50 is at least 6.
Output line: no (0)

Input line: Given CC(C)(C)[C@@H](C(=O)N1C[C@H](O)C[C@H]1C(=O)N[C@H](Cc1ccc(-c2ccccc2)cc1)C(N)=O)n1cc(C(N)=O)nn1 , state whether its pIC50 is at least 6.
Output line: no (0)

Input line: Given Cc1nnn([C@H](C(=O)N2C[C@H](O)C[C@H]2C(=O)N[C@H](Cc2ccc(-c3ccccc3)cc2)C(N)=O)C(C)C)c1C , state whether its pIC50 is at least 6.
Output line: no (0)

Input line: Given CC(C)[C@@H](C(=O)N1C[C@H](O)C[C@H]1C(=O)N[C@H](Cc1ccc(-c2ccccc2)cc1)C(N)=O)n1nnc2ccccc21 (single isomer, unassigned) [Isomer A from Example S36] , state whether its pIC50 is at least 6.
Output line: yes (1)

Input line: Given NC(=O)[C@@H](Cc1ccc(-c2ccccc2)cc1)NC(=O)[C@@H]1C[C@@H](O)CN1C(=O)[C@H](C1CCC1)n1cc(C2CC2)nn1 , state whether its pIC50 is at least 6.
Output line: yes (1)

Input line: Given Cc1cnnn1[C@H](C(=O)N1C[C@H](O)C[C@H]1C(=O)N[C@H](Cc1ccc(-c2ccccc2)cc1)C(N)=O)C(C)C , state whether its pIC50 is at least 6.
Output line: no (0)
